# EXPERIMENTAL TARGET: Glutamate NMDA receptor
# TEST DETAILS: Compound was evaluated for its ability to displace [3H]Glu/[3H]-AP5 from rat brain membrane
# Assay type: tissue-based
MEASURED ATTRIBUTE: IC50 (µM)

Some entries whose results are on file:
- COMPOUND: "Cc1o[nH]c(=O)c1C(N)C(=O)O (stereo unspecified)"
  IC50, µM: 110
- COMPOUND: "O=C(O)[C@H]1CCN[C@H](C(=O)O)C1"
  IC50, µM: 100

A. O=C(O)c1cccnc1C(=O)O
B. O=C(O)[C@H]1CCCN[C@@H]1C(=O)O
Recorded IC50 values differ for A and B ; which one is higher? Answer format: the label of the selected item. A
(A: 100 µM, B: 10 µM)
